System: MDA-MB-231 breast
procedure summary: NCI tumour cell line growth inhibition, 48 h
Assign TGI to each entry below.

CSCCCNC(=O)c1csc(-c2csc(CCNC(=O)CNC(=O)CNC(=O)OC(C)(C)C)n2)n1 : > 100 µM
CC1CN=C(c2cccc(-c3nc(-c4cccc(C5=NCC(C)N5)c4)nc(N(C)C)n3)c2)N1 (centres undefined) : 3.48 µM
COc1ccc(N(/C=C/C(=O)C(F)(F)F)CC(=O)c2ccc(Cl)cc2)cc1 : 24.4 µM

Give me TGI for each of these compounds, listed below.
1. COc1cccc2c1C(=O)OC2c1cccc2ccccc12 (centres undefined)
2. CCN(CC)CCCNc1[nH]ncc2c(C)c3nc4ccc(OC)cc4c3cc12
3. CN(C(=O)Cc1cc(Cl)c(Cl)cc1NC(=O)CN)[C@H]1CCCC[C@@H]1N1CCCC1
4. NC(=O)c1c(NC=O)ncn1C1OCC(O)C(O)C1O (centres undefined)
5. CCS(=O)(=O)c1ccc(OC)c(Nc2ncc(-c3ccccc3Cl)o2)c1
6. O=S(=O)(O)c1ccc2c(N=Nc3ccc(Cl)cc3)c(O)ccc2c1
7. COc1cccc2cc(C(C)=O)c(=O)oc12

["> 100 µM", "2.65 µM", "71.2 µM", "> 100 µM", "> 25 µM", "> 100 µM", "> 100 µM"]
